- assayedTarget: USP25 (USP25-His6, Boston Biochem E-546) (Homo sapiens, UniProt Q9UHP3)
- Construct: His6; purchased Boston Biochem E-546
- Sequence (Q9UHP3 1-1055): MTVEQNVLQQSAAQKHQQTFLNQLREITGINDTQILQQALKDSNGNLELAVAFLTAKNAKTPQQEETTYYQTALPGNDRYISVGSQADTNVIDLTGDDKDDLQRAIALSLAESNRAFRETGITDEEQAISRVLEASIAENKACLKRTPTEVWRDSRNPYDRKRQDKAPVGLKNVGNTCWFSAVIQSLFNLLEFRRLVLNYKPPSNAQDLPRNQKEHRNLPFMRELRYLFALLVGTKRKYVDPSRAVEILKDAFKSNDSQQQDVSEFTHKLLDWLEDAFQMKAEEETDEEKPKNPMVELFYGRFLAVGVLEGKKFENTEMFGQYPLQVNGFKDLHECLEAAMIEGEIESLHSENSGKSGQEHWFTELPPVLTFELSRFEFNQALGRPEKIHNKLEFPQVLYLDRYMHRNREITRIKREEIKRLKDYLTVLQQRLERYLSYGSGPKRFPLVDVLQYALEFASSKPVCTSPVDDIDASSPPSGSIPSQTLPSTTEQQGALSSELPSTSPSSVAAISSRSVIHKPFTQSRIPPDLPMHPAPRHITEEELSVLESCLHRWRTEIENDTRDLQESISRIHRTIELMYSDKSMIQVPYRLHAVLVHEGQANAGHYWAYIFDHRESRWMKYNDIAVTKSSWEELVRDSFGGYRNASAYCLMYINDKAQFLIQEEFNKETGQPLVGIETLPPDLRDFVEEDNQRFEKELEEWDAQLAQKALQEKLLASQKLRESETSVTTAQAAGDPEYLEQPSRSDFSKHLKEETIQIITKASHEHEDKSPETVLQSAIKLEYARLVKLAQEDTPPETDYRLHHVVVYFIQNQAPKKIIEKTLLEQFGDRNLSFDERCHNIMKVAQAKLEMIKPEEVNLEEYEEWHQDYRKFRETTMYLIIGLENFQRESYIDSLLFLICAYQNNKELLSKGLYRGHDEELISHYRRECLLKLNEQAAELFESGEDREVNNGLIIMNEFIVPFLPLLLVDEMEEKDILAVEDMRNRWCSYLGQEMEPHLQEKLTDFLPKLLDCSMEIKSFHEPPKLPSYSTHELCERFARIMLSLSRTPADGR
- experimentalProtocol: Ubiquitin-Rhodamine 110 Assay for USP25 Activity, Example A-2
- Format: biochemical
- conditionLabel: Ubiquitin-Rhodamine 110 assay, Example A-2; read-out: USP25 A-2 IC50 range
pIC50: −log10 of the molar value.
readout: pIC50

Cc1ccc2c(N)c(C(=O)N[C@H]3CCc4nc(N5C[C@@H]6NCCC(F)(F)[C@@H]6C5)ccc4C3)sc2n1 : < 5.70
Cc1cnc2c(N)c(C(=O)N[C@H]3CCc4nc(N5CC6CC(C5)N6)ccc4C3)sc2n1 : 5.70 to 6.70
CO[C@H]1CN(c2ccc3c(c2)OC[C@H](NC(=O)c2sc4nc(C)cnc4c2N)C3)C[C@H]1N : 5.70 to 6.70
Cc1ccc2c(N)c(C(=O)N[C@H]3COc4cc(N5CCC(O)CC5)ccc4C3)sc2n1 : 5.70 to 6.70

Dear colleague, could you please provide pIC50 for the compounds listed below?
1. Cc1cnc2c(N)c(C(=O)N[C@H]3CCc4cc(N5CC6CCC(C5)N6)cc(F)c4C3)sc2n1 (single isomer, unassigned)
2. Cc1ccc2c(N)c(C(=O)N(C)[C@H]3COc4cc(N5CCNCC5)cc(F)c4C3)sc2n1
3. CO[C@@H]1CN(c2ccc3c(n2)CC[C@H](NC(=O)c2sc4nc(C)ccc4c2N)C3)C[C@@]1(C)N

Completion:
["< 5.70", "< 5.70", "< 5.70"]
